# EXPERIMENTAL PROTOCOL: clinical
# SETUP CONDITIONS: human, plasma, intravenous, 100 mg/m2, AUClast, Cohorts 1 & 2, 17-AAG 100 mg/m^2; Median
RECORDED METRIC: AUC(0-t) (ng·h/mL)
Reply numerically in ng·h/mL, unit not repeated.

Request: Report AUC(0-t) for C=CCNC1=C2C[C@@H](C)C[C@H](OC)[C@H](O)[C@@H](C)/C=C(\C)[C@H](OC(N)=O)[C@@H](OC)/C=C\C=C(/C)C(=O)NC(=CC1=O)C2=O
Result: 3350

* * *

# EXPERIMENTAL PROTOCOL: clinical
# SETUP CONDITIONS: human, in vivo, 150 mg/m2, Vss, Cohorts 3 & 4, 17-AAG 150 mg/m^2; Mean
RECORDED METRIC: Vd (L)
Reply numerically in L, unit not repeated.

Request: Report Vd for C=CCNC1=C2C[C@@H](C)C[C@H](OC)[C@H](O)[C@@H](C)/C=C(\C)[C@H](OC(N)=O)[C@@H](OC)/C=C\C=C(/C)C(=O)NC(=CC1=O)C2=O
Result: 143

* * *

# EXPERIMENTAL PROTOCOL: clinical
# SETUP CONDITIONS: human, plasma, intravenous, 100 mg/m2, AUClast, 17-AG metabolite; Cohorts 1 & 2, 17-AAG 100 mg/m^2; Mean
RECORDED METRIC: AUC(0-t) (ng·h/mL)
Reply numerically in ng·h/mL, unit not repeated.

Request: Report AUC(0-t) for CO[C@H]1/C=C\C=C(/C)C(=O)NC2=CC(=O)C(N)=C(C[C@@H](C)C[C@H](OC)[C@H](O)[C@@H](C)/C=C(\C)[C@@H]1OC(N)=O)C2=O
Result: 3480

* * *

# EXPERIMENTAL PROTOCOL: clinical
# SETUP CONDITIONS: human, plasma, intravenous, 150 mg/m2, Vz, Cohorts 3 & 4, 17-AAG 150 mg/m^2; Mean
RECORDED METRIC: Vd (L)
Reply numerically in L, unit not repeated.

Request: Report Vd for C=CCNC1=C2C[C@@H](C)C[C@H](OC)[C@H](O)[C@@H](C)/C=C(\C)[C@H](OC(N)=O)[C@@H](OC)/C=C\C=C(/C)C(=O)NC(=CC1=O)C2=O
Result: 166

* * *

# EXPERIMENTAL PROTOCOL: clinical
# SETUP CONDITIONS: human, plasma, intravenous, Terminal elimination half-life, 17-AG metabolite; cohorts 1-4 combined
# Method: PK assessments included the following tests. […] The total number of PK samples collected was approximately 115 mL of whole blood (7-8 tablespoons). If a patient experienced a potentially drug-related SAE, additional PK samples were collected. Blood was drawn from the contralateral arm to the infusion site using an indwelling catheter to avoid multiple needle sticks. […] The blood tube was inverted several times and the tube placed in wet ice immediately pending separation of the plasma. […]
RECORDED METRIC: half-life

Request: Report half-life for CO[C@H]1/C=C\C=C(/C)C(=O)NC2=CC(=O)C(N)=C(C[C@@H](C)C[C@H](OC)[C@H](O)[C@@H](C)/C=C(\C)[C@@H]1OC(N)=O)C2=O [17-AG, 17-aminogeldanamycin]
Result: 6.52 h

* * *

# EXPERIMENTAL PROTOCOL: clinical
# SETUP CONDITIONS: human, plasma, intravenous, 150 mg/m2, AUClast, Cohorts 3 & 4, 17-AAG 150 mg/m^2; Median
RECORDED METRIC: AUC(0-t) (ng·h/mL)
Reply numerically in ng·h/mL, unit not repeated.

Request: Report AUC(0-t) for C=CCNC1=C2C[C@@H](C)C[C@H](OC)[C@H](O)[C@@H](C)/C=C(\C)[C@H](OC(N)=O)[C@@H](OC)/C=C\C=C(/C)C(=O)NC(=CC1=O)C2=O
Result: 4870
